Origin of measurements: PubChem BioAssay (NCI)

System: OVCAR-5 ovarian
measurement-notes: NCI tumour cell line growth inhibition, 48 h
Provide the reported TGI of each item.

Check out these entries, answers already filled in.
{"columns": ["compound", "TGI"],
 "data": [
  ["COc1ccc(-c2onc(-c3ccc([N+](=O)[O-])cc3)c2C2=NCCN2)cc1", "> 100 µM"],
  ["CCN(CC)C1Oc2cc3c(cc2C(c2ccc(OC)cc2)C1C)OCO3 (centres undefined)", "58.9 µM"],
  ["CC12OC(c3ccccc3)=CC(c3ccc(Cl)cc3)=C1C(c1ccccc1)=CC2=O (centres undefined)", "> 100 µM"]
]}

Here is the next item to consider.
Recorded TGI (compound CCCCCCCCC[C@@H]1CC(=O)OCC2OC(O[C@H](CCCCCCCCC)CC(=O)OCC3OC(O[C@H](CCCCCCCCC)CC(=O)OCC4OC(O1)C(O)C(O)C4O)C(O)C(O)C3O)C(O)C(O)C2O (some centres undefined) ): 22.5 µM

---

Test system: RPMI-8226 leukemia
measurement-notes: NCI tumour cell line growth inhibition, 48 h
Where a SMILES comes first, the peptide text is derived from it. [ ]: non-standard residue; d: D form. Ac5c = NC1(C(=O)O)CCCC1
Provide the reported TGI of each item.

State the recorded TGI for every item in the following list.
1. O=C1c2ccccc2C(=O)N1CCCSc1ccccc1
2. CCNC(=O)CCN(C(=O)O)S(=O)(=O)c1ccc(NC(=O)c2ccccc2)cc1
3. O=C1NC(=O)C(Cc2ccccc2)(c2cccnc2)N1 (centres undefined)
4. COc1ccc(N2C(=O)CC(Cl)C2=O)cc1 (centres undefined)
5. O=C(O[C@H]1CN[C@H](C#Cc2cc3ncnc(Nc4ccc5c(ccn5Cc5cc(F)ccc5F)c4)c3s2)C1)N1CCOCC1
6. CCCCCCCCC[C@@H]1CC(=O)OCC2OC(O[C@H](CCCCCCCCC)CC(=O)OCC3OC(O[C@H](CCCCCCCCC)CC(=O)OCC4OC(O1)C(O)C(O)C4O)C(O)C(O)C3O)C(O)C(O)C2O (some centres undefined)
7. CN1C2CCC1CC(CCOC(c1ccc(F)cc1)c1ccc(F)cc1)C2 (centres undefined)

["> 100 µM", "> 100 µM", "> 100 µM", "37.2 µM", "13.7 µM", "32.7 µM", "44.4 µM"]

State the recorded TGI for every item in the following list.
1. NC1(C(=O)NC2(C(=O)O)CCCC2)CCCC1 (H-[Ac5c]-[Ac5c]-OH)
2. COc1ccc2c(c1)/C(=C\c1c(C)nc3n1CCS3)C(=O)N2

1. > 100 µM
2. > 100 µM

---

Provide the reported TGI of each item.
Tested on: SR leukemia
measurement-notes: NCI tumour cell line growth inhibition, 48 h
Answers are plain numbers, in µM.

Check out these entries, answers already filled in.
{"columns": ["molecule", "unit-of-measure", "TGI"],
 "data": [
  ["COCC(N=CN1CCCc2ccccc2[C@@H]1CCCCl)C(C)(C)C (some centres undefined)", "µM", 12.2],
  ["CC(C)=CCCC(C)c1ccc(C)c2c1OCN(CC1CCNCC1)C2 (centres undefined)", "µM", 9.83],
  ["CCOC(=O)C(C(=O)OCC)=C1NC2(c3ccccc3Nc3ccc(C)cc32)C(C#N)S1 (centres undefined)", "µM", 4.99],
  ["CSc1ccc(C2=NN(C(=O)c3ccc(F)cc3)C(c3ccc(F)cc3)C2)cc1 (centres undefined)", "µM", 5.95]
]}

Here is the next item to consider.
Recorded TGI (molecule CC(=O)c1c(C)[nH]c(-c2nc3ccc(N4CCN(C)CC4)cc3[nH]2)c1-c1ccc(OCC2CCOCC2)cc1 ): 5.73

---

Provide the reported TGI of each item.
System: RXF 393 renal
measurement-notes: NCI tumour cell line growth inhibition, 48 h

Check out these entries, answers already filled in.
{"columns": ["compound", "TGI"],
 "data": [
  ["CC1=C(C(=O)Nc2ccccc2C)C(c2ccc(Cl)c(Cl)c2)C(C(=O)Nc2ccccc2C)=C(C)N1", "41.6 µM"],
  ["CC1C[C@@]2(c3ccccc3)C(=O)CCC[C@H]2N1 (some centres undefined)", "> 100 µM"],
  ["O=C1c2ccccc2C(O)(C(=O)O)C1(O)CC=C(Cl)Cl (centres undefined)", "> 125 µM"]
]}

State the recorded TGI for every item in the following list.
1. C=C1C(=O)C23CC1C[C@H](OC(C)=O)[C@H]2C1(C)C(OC(C)=O)C[C@H](O)C(C)(C)[C@H]1C(=O)[C@@H]3OC(C)=O (some centres undefined)
2. C=C1C(=O)O[C@H]2[C@H]1CC/C(CNC(=O)c1cc3cc(OC)ccc3[nH]1)=C\CC[C@@]1(C)O[C@@H]21
3. O=c1c2c(nc3n1CCS3)[nH]c1ccccc12
4. O=C1CC(CC(O)[C@@H]2CCCC[C@@H]2O)CC(=O)N1c1ccccc1 (some centres undefined)

1: 9.75 µM; 2: 2.61 µM; 3: > 100 µM; 4: > 100 µM

State the recorded TGI for every item in the following list.
1. CC(=O)OCC1OC(N2C(=O)C(=O)c3cc(C)ccc32)C(OC(C)=O)C(OC(C)=O)C1OC(C)=O (centres undefined)
2. CC12OC(c3ccccc3)=CC(c3ccc(Cl)cc3)=C1C(c1ccccc1)=CC2=O (centres undefined)

1: 90.7 µM; 2: > 100 µM

---

Tested on: OVCAR-5 ovarian
measurement-notes: NCI tumour cell line growth inhibition, 48 h
Where a SMILES comes first, the peptide text is derived from it. [ ]: non-standard residue; d: D form. Ac5c = NC1(C(=O)O)CCCC1
Provide the reported TGI of each item.

Check out these entries, answers already filled in.
{"columns": ["compound", "quantity-kind", "result"],
 "data": [
  ["COc1ccc(/C=N\\NC(=O)CN2CCN(c3cc4c(cc3F)c(=O)c(C(=O)N/N=C/c3ccc(OC)c(OC)c3)cn4C3CC3)CC2)cc1OC", "TGI", "6.94 µM"],
  ["Cn1c([N+](=O)[O-])cnc1/C=C1\\Oc2ccccc2C1=O", "TGI", "6.63 µM"],
  ["COC(=O)C1C(C(=O)OC)C2(OC)c3ccccc3-c3ccccc3C12 (stereo not given)", "TGI", "> 100 µM"],
  ["NC1(C(=O)NC2(C(=O)O)CCCC2)CCCC1 (H-[Ac5c]-[Ac5c]-OH)", "TGI", "> 100 µM"],
  ["Cc1cc(C)nc(NS(=O)(=O)c2ccc(Nc3c4ccccc4nc4c(C(=O)NNCCO)cccc34)cc2)n1", "TGI", "> 100 µM"],
  ["O=C1c2ccccc2-c2c1c1ccccc1c(=O)n2CCCNCCCn1ccnc1", "TGI", "4.93 µM"],
  ["CCOC(=O)C(N)C[S][Sn]([CH3])([CH3])[Cl] (stereo not given)", "TGI", "> 100 µM"],
  ["CN1CCC2(CC1)SC[C@H]1C(=O)N(c3ccc(Cl)cc3)C(=O)N12", "TGI", "> 100 µM"]
]}

State the recorded TGI for every item in the following list.
1. CCC(C)C(C(=O)N/N=C1/SCC(=O)N1c1ccccc1)C(=O)N/N=C1/SCC(=O)N1c1ccccc1 (stereo not given)
2. CC[C@@H]1OC2(C)CC(S(=O)(=O)c3ccccc3O)CC1O2 (stereo not given in full)

1: > 100 µM; 2: > 100 µM

---

Tested on: OVCAR-3 ovarian
measurement-notes: NCI tumour cell line growth inhibition, 48 h
// label = yes (1) if TGI is not less than 50 µM, otherwise no (0)

Known results for compounds:
{"columns": ["compound", "category"],
 "data": [
  ["COC(=O)c1cc2c(cc1Cl)SC(N(N(C)C)S(=O)(=O)c1ccc(Br)s1)=NS2(=O)=O", "yes (1)"],
  ["O=c1c2cc(Cl)ccc2oc2ccc(OCCCCCN3CCCCC3)cc12", "no (0)"],
  ["COc1cc(OC)cc(C2CC(=O)Nc3c2c(C)nn3-c2nc3ccccc3[nH]2)c1 (stereo not given)", "no (0)"],
  ["O=C(c1ccccc1)c1ccc2nc3n(c2c1)C(c1c(F)cccc1F)SC3 (stereo not given)", "no (0)"],
  ["CCNC(=O)CCN(C(=O)O)S(=O)(=O)c1ccc(NC(=O)c2ccccc2)cc1", "yes (1)"],
  ["COc1ccc(-c2onc(-c3ccc([N+](=O)[O-])cc3)c2C2=NCCN2)cc1", "yes (1)"]
]}

TGI >= 50 µM for COc1cc(/C=C(\C#N)C(=O)c2ccccc2)ccc1OCc1ccccc1 ? yes (1)

TGI >= 50 µM for O=C1OC(CC(=O)c2ccc(Cl)c(Cl)c2)C(Cl)=C1Cl (stereo not given) ? yes (1)

---

Provide the reported TGI of each item.
Tested on: SK-MEL-5 melanoma
measurement-notes: NCI tumour cell line growth inhibition, 48 h

Check out these entries, answers already filled in.
{"columns": ["compound", "TGI"],
 "data": [
  ["Cc1cc(C)c([O-])c(CN(C)CCN(C)Cc2cc(C)cc(C)c2[O-])c1.O=C([O-])c1cccc(C(=O)[O-])n1.[Ti+4]", "> 100 µM"],
  ["CC(=O)C(=[N+]=[N-])C(=O)NCC#N", "> 10 µM"]
]}

State the recorded TGI for every item in the following list.
1. Cc1ccc(-n2cnc3c(N)nc(N)nc32)cc1
2. O=S(=O)(NC1=NCCN1C(=S)SN1CCn2c1nsc2=S)c1ccc(Br)cc1

1: > 100 µM; 2: 47.9 µM

State the recorded TGI for every item in the following list.
1. CCOC(=O)NC(=O)c1cn(CC(=O)NCC(=O)NCC(=O)NCCCN2CCN(CCCNC(=O)CNC(=O)CNC(=O)Cn3cc(C(=O)NC(=O)OCC)c(=O)[nH]c3=O)CC2)c(=O)[nH]c1=O
2. CNc1c2cccc(C)c2nc2c(C(=O)NCCN(C)C)cccc12
3. CC(=O)O[C@H]1CC[C@H]2[C@@H]3CCC4C(C)=NNC(=O)C4[C@H]3CC[C@]12C (some centres undefined)

["> 100 µM", "0.593 µM", "> 100 µM"]

State the recorded TGI for every item in the following list.
1. COc1ccc(Nc2nnc(CCCCCCCCc3nnc(Nc4ccc(OC)cc4)o3)o2)cc1
2. CCOC(=O)NNC(=O)C1CSC(c2ccccc2)N1C(C)=O (centres undefined)

> 100 µM
> 100 µM
